- protocolSummary: Cytotoxicity against human NOK-SI cells assessed as cell viability rate at 20 ug/ml
- Assay type: toxicity, cell-based
- runParameters: at 20 µg/mL, read-out: Activity
measuredEndpoint: viability at 20 ug/ml (%)
I only need the number, in %, no unit after it.

Look up viability at 20 ug/ml for this compound: CC(=O)Nc1ccc(S(=O)(=O)C/C(=N/NC(=O)c2ccccn2)c2nccs2)cc1 65

====

- Tested on: Escherichia coli
- protocolSummary: Antibacterial activity against Escherichia coli assessed as inhibition of bacterial growth by continuous dilution method
- Assay type: functional
measuredEndpoint: MIC (mg/L)
I only need the number, in mg/L, no unit after it.

smilesStructure | quantityUnit | measured
CCCCCCO/N=C(/CS(=O)(=O)c1ccc(NC(C)=O)cc1)c1nccs1 | mg/L | 32
CCO/N=C(/CS(=O)(=O)c1ccc(N)cc1)c1nccs1 | mg/L | 16
CC(=O)Nc1ccc(S(=O)(=O)/C(=C\c2ccc(C(F)(F)F)cc2)C(=O)c2nccs2)cc1 | mg/L | 256
CC(=O)Nc1ccc(S(=O)(=O)C/C(=N/Nc2ccc(C(=O)O)cc2)c2nccs2)cc1 | mg/L | 64
N#CCO/N=C(/CS(=O)(=O)c1ccc(N)cc1)c1nccs1 | mg/L | 16

Look up MIC for this compound: C=CCO/N=C(/CS(=O)(=O)c1ccc(NC(C)=O)cc1)c1nccs1 64

Look up MIC for this compound: CC(=O)Nc1ccc(S(=O)(=O)/C(=C\c2nccs2)C(=O)c2nccs2)cc1 16

Look up MIC for this compound: COc1ccc(/C=C(/C(=O)c2nccs2)S(=O)(=O)c2ccc(NC(C)=O)cc2)cc1 32

Look up MIC for this compound: CC(=O)Nc1ccc(S(=O)(=O)/C(=C\c2ccc(Cl)cc2Cl)C(=O)c2nccs2)cc1 256

Look up MIC for this compound: CC(=O)Nc1ccc(S(=O)(=O)C/C(=N/Nc2ccc([N+](=O)[O-])cc2[N+](=O)[O-])c2nccs2)cc1 64

Look up MIC for this compound: CCCCO/N=C(/CS(=O)(=O)c1ccc(N)cc1)c1nccs1 32

Look up MIC for this compound: CC(=O)Nc1ccc(S(=O)(=O)C/C(=N/Nc2ccc([N+](=O)[O-])cc2)c2nccs2)cc1 64

Look up MIC for this compound: Nc1ccc(S(=O)(=O)C/C(=N/OCc2ccc(Cl)cc2Cl)c2nccs2)cc1 32

Look up MIC for this compound: CC(=O)Nc1ccc(S(=O)(=O)C/C(=N/NC(=O)Cc2ccccc2)c2nccs2)cc1 256

Look up MIC for this compound: C#CCO/N=C(/CS(=O)(=O)c1ccc(NC(C)=O)cc1)c1nccs1 32

Look up MIC for this compound: CC(=O)Nc1ccc(S(=O)(=O)C/C(=N/NC(=O)c2ccccc2O)c2nccs2)cc1 128

Look up MIC for this compound: C=CCO/N=C(/CS(=O)(=O)c1ccc(N)cc1)c1nccs1 32

Look up MIC for this compound: CC(=O)Nc1ccc(S(=O)(=O)/C(=C\c2ccc([N+](=O)[O-])cc2)C(=O)c2nccs2)cc1 32

Look up MIC for this compound: CC(=O)Nc1ccc(S(=O)(=O)C/C(=N/OCc2ccc(Cl)cc2Cl)c2nccs2)cc1 64

Look up MIC for this compound: CC(=O)Nc1ccc(S(=O)(=O)/C(=C\c2ccc(C)cc2)C(=O)c2nccs2)cc1 256

Look up MIC for this compound: CC(=O)Nc1ccc(S(=O)(=O)C/C(=N/Nc2ccc(Cl)cc2)c2nccs2)cc1 128

Look up MIC for this compound: CC(=O)Nc1ccc(S(=O)(=O)C/C(=N/OCc2ccc(Cl)cc2)c2nccs2)cc1 64
